Biological target: Calmodulin-1 (Homo sapiens) (UniProt P0DP23)
Assay: small molecules binding Ca-loaded calmodulin-1 – biochemical, small-molecule microarray, Cy5-labelled CALM1, plus calcium, artefact control for SMM control-protein annotation, profiling panel (AID 1112);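 note: score merges spot fluorescence with signal to noise from triplicate slides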
Conditions: Cy5-CALM1 binding fluorescence, higher = more signal

# compound, composite z-score
data = [
    ("CCCCC(O)C1C=CC2C(=O)N(C)C(=O)C2N1N1CCCCC1 (configuration not stated)", -0.665),
    ("COC(=O)[C@@]1(Cc2ccc(OC)cc2)[C@H]2c3cc(C(=O)N4CCCC4)n(CCc4ccc(O)c(O)c4)c3C[C@H]2CN1C(=O)c1ccccc1", 0.679),
    ("CC1CC/C=C\\[C@H]2OC34C=CCN(Cn5nnc6ccccc65)C(=O)[C@H]3N(CCCCCO)C(=O)[C@@H]4C2C(=O)O1 (some centres not stated)", 0.0455),
    ("COCCOC(=O)N1C(=O)[C@@]2(c3ccccc31)[C@H](C(=O)N1CCCCCCC1)[C@H]1C(=O)O[C@H](c3ccccc3)[C@H](c3ccccc3)N1[C@@H]2c1ccc(OCCO)cc1", 1.76),
    ("[N-]=[N+]=Nc1ccccc1C[C@@]1(C(=O)N2CCCCC2)N=C(c2ccc(OCCCO)cc2)O[C@@H]1c1ccccc1N=[N+]=[N-]", 1.04),
    ("COc1ccc([C@H]2C[C@H]3C(Br)=C[C@@]2(CO)C(=O)[C@]32CO2)cc1", -0.38),
    ("CC(=O)NCCCC[C@@H]1NC(=O)[C@H]2C[C@@H](C(=O)O)[C@@H](c3ccc(O)cc3)N2C1=O", -0.548),
]

---

Overview of recorded z-score for various molecules
Assay: hepatitis C replication reporter changes, two-sided – Huh7 cells, luciferase reporter, HCV replication inhibitor project, primary screen (AID 1109);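 note: huh7 hepatoma cells harbouring a luciferase neomycin HCV replicon reporter; luciferase luminescence as measure of HCV replicon replication; test concentration not given here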
Conditions: Huh7 HCV replicon luciferase reporter, 48 h; higher = more signal

# molecule, z-score
measured = [
    ("CCCCC(=C=CC[C@@H](O)c1cccc(OCCO)c1)C[C@@H](O)c1ccccn1", -0.617),
    ("COCCOC(=O)N1C(=O)[C@@]2(c3cc(C#CC4(O)CCCCCC4)ccc31)[C@H](C(=O)Nc1nc3ccccc3s1)[C@H]1C(=O)O[C@H](c3ccccc3)[C@H](c3ccccc3)N1[C@@H]2c1ccccc1OCCO", -1.66),
    ("NC(=O)N1C(=O)C2C(C1=O)C1C=C(CCCO)C2C(C2CC2)N1Cc1cc2c(cc1Br)OCO2 (stereo not drawn)", -0.264),
    ("CC(C)(C)OC(=O)CC[C@@]1(C(=O)N2CCCCC2)N=C(c2ccc(OCCCO)cc2)O[C@@H]1c1ccccc1", -1.49),
    ("CCCCC(=C=CC[C@H](O)c1cccc(OCCO)c1)C[C@H](O)c1ccccn1", -1.05),
    ("O=C1[C@H]2C=C(Br)[C@H](C[C@@H]2OCCCCCCO)[C@@]12CO2", -3.2),
    ("COC(=O)C(CC#Cc1ccc2c(c1)[C@]1(C(=O)N2)[C@H](c2ccc(O)cc2)N2[C@H](c3ccccc3)[C@H](c3ccccc3)OC(=O)[C@H]2[C@@H]1C(=O)N1CCN(c2ncccn2)CC1)C(=O)OC", -0.305),
    ("Cc1ccc([C@H]2C(C(=O)O)=CCN2S(=O)(=O)c2ccc(C)cc2)cc1", -1.02),
    ("O[C@@H](Cc1ccccc1)[C@@H](/C=C/C1CC1)NCc1cccc(Cl)c1", -4.47),
    ("C=C(CCCC)/C(=C/C[C@H](OC(C)=O)c1ccccc1OCCO)c1cnc2ccccc2c1", -2.75),
    ("COCCOC(=O)N1C(=O)[C@@]2(c3cc(C#CC4=CCCCC4)ccc31)[C@H](C(N)=O)[C@H]1C(=O)O[C@H](c3ccccc3)[C@H](c3ccccc3)N1[C@@H]2c1ccc(O)cc1", -1.76),
    ("CCOC(=O)C[C@H]1[C@H](OC(=O)c2cc3ccccc3oc2=O)[C@@H](NC(=O)CC(C)C)c2cc(OCCCO)ccc2N1C(=O)c1ccccc1", 0.186),
    ("CC(=O)Nc1cc(Br)ccc1C(=O)NCc1ccccc1", -0.0162),
    ("O=C1C2C=CC(C(O)c3ccc(-c4ccccc4)s3)N(Nc3ccccc3)C2C(=O)N1c1ccccc1 (stereo not drawn)", -0.978),
    ("CC(C)CNC(=O)[C@@]1(Cc2ccccc2I)c2ccccc2C(=O)N(Cc2ccccc2C(F)(F)F)[C@H]1c1ccc(CO)cc1", -0.908),
    ("COC(=O)[C@H](Cc1ccccc1)N[C@H](/C=C/C1CC1)[C@@H](O)Cc1ccccc1", -1.02),
    ("NCCCCCCNC(=O)[C@H]1C[C@H]2C(=O)N[C@@H](Cc3ccccc3)C(=O)N2[C@H]1c1cccc(OCCO)c1", 0.794),
    ("[N-]=[N+]=Nc1ccccc1C[C@]1(C(=O)N2CCCCC2)COC(c2ccc(OCCCO)cc2)=N1", -2.43),
]

---

Experiment: budding yeast growth modifiers under rapamycin – strain BY4716, OD600, 96 h, primary screen (AID 1091); note: test concentration not given here
Conditions: S. cerevisiae BY4716 + rapamycin, higher = more signal, called active from +8 up or from −8 down

# molecularString, z-score
data = [
    ("O=C1O[C@@H](c2ccccc2)[C@@H](c2ccccc2)N2[C@@H](c3ccccc3OCCO)[C@]3(C(=O)Nc4ccccc43)[C@@H](C(=O)O)[C@H]12", -1.17),
    ("CCOC(=O)C[C@H]1[C@H](OC(=O)c2ccc(-c3ccccc3)cc2)[C@@H](NC(=O)c2ccccc2)c2cc(OCCCO)ccc2N1C(=O)c1ccc2ccccc2n1", 0.545),
    ("[N-]=[N+]=NCc1ccccc1[C@@H]1OC(c2ccc(OCCCO)cc2)=N[C@]1(CCS(=O)(=O)c1ccccc1)C(N)=O", -0.325),
]

---

Target: Torsin-1A (Homo sapiens)
Assay: torsin A mutant lysate binding on microarrays – cell lysate, small-molecule microarray, COS7 lysate, 635/667 nm fluorescence, primary screen (AID 1150);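 note: score pools 667 nm emission and signal to noise measuring lysate protein binding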
Conditions: COS7 hTOR1A mutant lysate, 635 nm fluorescence, higher = more signal
experimentalReadout: composite z-score

# compound, obsValue
data = [
    ("O=C1[C@H]2C=C(I)[C@H](C[C@@H]2OCCCCO)[C@@]12CO2", 0.625),
    ("C=CC[C@@]1(C(=O)N2CCCCC2)N=C(c2ccc(OCCCO)cc2)O[C@@H]1c1ccccc1CN=[N+]=[N-]", 0.711),
    ("CS(=O)(=O)CCOC(=O)C1=CC(CCCO)=CC(c2ccc(CN3CCCC3)cc2)N(Cc2cccc(OC(F)(F)F)c2)C=C1C(=O)OCCS(C)(=O)=O (configuration not stated)", 1.33),
    ("CCCCCCc1nc(-c2ccc(-c3ccc(Cl)c(Cl)c3)o2)c(C)c2c1[Si](C(C)C)(C(C)C)OC2", 0.0515),
    ("C=CC[C@]1(C(=O)NCc2ccccc2)N=C(c2ccc(OCCCO)cc2)O[C@H]1c1ccccc1CN=[N+]=[N-]", 0.631),
    ("CCN(CC)c1ccc(N2CC=CC34O[C@@H]5/C=C\\CCC(C)OC(=O)C5[C@H]3C(=O)N(CCCCCO)[C@@H]4C2=O)cc1 (some centres not stated)", -1.59),
    ("CCCC(=O)N(CCc1c[nH]c2ccccc12)[C@@H]1CC(C(=O)NCCO)=C[C@H](Oc2c(I)cc(CO)cc2OC)[C@H]1O", 0.0165),
]

---

Biological target: Calmodulin-1 (Homo sapiens)
Experiment: small molecules binding calmodulin-1 with EGTA – biochemical, small-molecule microarray, Cy5-labelled CALM1, profiling panel (AID 1111);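 note: labelled calmodulin applied in Tris saline Tween buffer holding calcium plus EGTA and DTT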
Conditions: Cy5-CALM1 binding fluorescence, higher = more signal
# label = 1 if composite z-score >= 1 else -1

# molecule, measurementTarget, classAssignment
rows = [
    ("COc1ccc([C@H]2OC[C@@H]3CCC(=O)N32)cc1", "Calmodulin-1 (Homo sapiens)", -1),
    ("COc1ccc([Si](C)(C)[C@@H]2[C@@H](CC(=O)N3CCC[C@H]3CO)O[C@]3(C(=O)N(Cc4cccc(I)c4)c4ccccc43)[C@H]2C)cc1", "Calmodulin-1 (Homo sapiens)", -1),
    ("COC(=O)[C@@]1(Cc2ccc(OC)cc2)[C@H]2c3cc(C(=O)N4CCCC4)n(Cc4nc5ccccc5[nH]4)c3C[C@H]2CN1C(=O)c1ccccc1", "Calmodulin-1 (Homo sapiens)", 1),
    ("O=C(O)C1N=C(c2ccc(OCCCO)cc2)N(c2ccccc2)O1 (stereo not drawn)", "Calmodulin-1 (Homo sapiens)", -1),
    ("[N-]=[N+]=Nc1ccccc1C[C@@]1(C(=O)N2CCCCC2)N=C(c2ccc(OCCCO)cc2)O[C@@H]1c1ccccc1N=[N+]=[N-]", "Calmodulin-1 (Homo sapiens)", 1),
    ("CCN(CC)c1ccc(N2CC=CC34O[C@@H]5/C=C\\CCC(C)OC(=O)C5[C@H]3C(=O)N(CCCCCO)[C@@H]4C2=O)cc1 (stereo partly drawn)", "Calmodulin-1 (Homo sapiens)", -1),
    ("CC[C@@H]1C=C(C(=O)O)[C@H](c2cccc3ccccc23)N1S(=O)(=O)c1ccc(C)cc1", "Calmodulin-1 (Homo sapiens)", 1),
    ("C=CC[C@@]1(C(=O)N2CCCCC2)N=C(c2ccc(OCCCO)cc2)O[C@@H]1c1ccccc1N=[N+]=[N-]", "Calmodulin-1 (Homo sapiens)", 1),
]
